Test system: U251 CNS
PROCEDURE_SUMMARY: NCI-60 one-dose screen, 48 h (100 = growth as untreated, 0 = no growth, -100 = all killed)
STATED_CONDITIONS: 10 µM unless noted
Procedure: Growth inhibition of the U251 human tumor cell line is measured as a screen for anti-cancer activity. Cells are grown in 96 well plates and exposed to the test compound for 48 hours. Compounds are tested at a single concentration, which is 10^-5 M for most compounds. The reported endpoint is percent growth (GI% or GIPRCNT), where numbers from 0 - 100% represent growth inhibition, and numbers from -100% - 0 represent cell death. For example, a value of 40 represents 60% growth inhibition. […]
Compounds without any hit were thinned out: in the full panel of roughly 83,000, 20% have a hit.
Label MET when growth is at or above 30%; otherwise label NOT MET.

Example results:
[[record]]
compound = "COc1cc(C2C=C(c3cccc(NC(C)=O)c3)Nc3ncnn32)cc(OC)c1OC (stereo not drawn)"
target_desc = "U251 CNS"
group_label = "NOT MET"

[[record]]
compound = "O=C(C[C@@]1(O)C(=O)Nc2c(Cl)ccc(Cl)c21)c1ccc(C2CC2)cc1"
target_desc = "U251 CNS"
group_label = "MET"

[[record]]
compound = "O=C(NCc1cccnc1)c1cc(-c2csc3c(=O)cc(N4CCOCC4)oc23)cc2c1OCCO2"
target_desc = "U251 CNS"
group_label = "MET"

[[record]]
compound = "CN1CCC(=C2c3ccccc3C=Cc3ccccc32)CC1"
target_desc = "U251 CNS"
group_label = "MET"

[[record]]
compound = "Cn1c(NCCc2ccc(O)c(O)c2)nc2c1c(=O)n(Cc1ccc(Cl)cc1)c(=O)n2C"
target_desc = "U251 CNS"
group_label = "MET"

[[record]]
compound = "COc1ccc(C2=NC(=O)NC2c2ccc(OC)cc2)cc1 (stereo not drawn)"
target_desc = "U251 CNS"
group_label = "MET"

[[record]]
compound = "C=C1C(=O)O[C@H]2[C@H]1CC/C(COC(=O)/C=C\\C(=O)NCc1ccc(Cn3c(=O)sn(CCCI)c3=O)cc1)=C\\CC[C@@]1(C)O[C@@H]21"
target_desc = "U251 CNS"
group_label = "NOT MET"

[[record]]
compound = "COC1=CC(c2ccc[nH]2)=N/C1=C\\c1[nH]c(C)c(C(=O)OCCn2cc(CCC[C@@H]3Cc4cc(O)ccc4C4CC[C@]5(C)[C@@H](O)CC[C@H]5C43)nn2)c1C (stereo partly drawn)"
target_desc = "U251 CNS"
group_label = "MET"


Decide: is the reported value of growth for CCN(CC)CCOc1ccc(/C(=C(\C)c2ccc(F)c(OC)c2)c2ccc(Cl)cc2)cc1 equal to or greater than 30%? NOT MET

Decide: is the reported value of growth for C=CCN1C(=O)[C@]2(SC1=S)[C@H](c1cccc(Cl)c1)CN(C)[C@]21C(=O)NC2C=CC(Cl)=C[C@H]21 (stereo partly drawn) equal to or greater than 30%? MET

Decide: is the reported value of growth for C=CC(=O)Nc1cccc(C)c1Nc1cc(-c2cccnc2Cc2c(C)c(OC)cc(OC)c2C)ncn1 equal to or greater than 30%? NOT MET

Decide: is the reported value of growth for CC1(C)N=C(N)N=C(N)N1c1cccc(CN)c1 equal to or greater than 30%? MET

Decide: is the reported value of growth for CN(CCC(=O)/C(=C\c1ccccc1)c1ccc(Cl)cc1)Cc1ccccc1 equal to or greater than 30%? NOT MET

---

Hi there, I'd appreciate the recorded growth for every entry that follows.
Tested on: SNB-19 CNS
PROCEDURE_SUMMARY: NCI-60 one-dose screen, 48 h (100 = growth as untreated, 0 = no growth, -100 = all killed)
STATED_CONDITIONS: 10 µM unless noted
This is part of a sample that, as a whole, favours compounds with a hit. Of some 83,000 tested, about 20% had one in any assay.
One number for each entry, in %.

Worked examples follow.
[[record]]
compound = "CN1CCN(c2ccc3nc(/N=C/c4ccc5sc(-c6ccc([N+](=O)[O-])cc6)nc5c4)sc3c2)CC1"
measured_attribute = "growth"
measured_result = 104

[[record]]
compound = "CC(C)N(CCOC(=O)Nc1ccccc1Cl)C(C)C"
measured_attribute = "growth"
measured_result = 98.6

[[record]]
compound = "CCOC(=O)c1ccc(-c2ccc3cc(OC)ccc3c2)nc1C"
measured_attribute = "growth"
measured_result = 99.6

[[record]]
compound = "COc1ccc(/C=C2\\C=C(c3ccccc3)N(CCc3ccccc3)C2=O)cc1OC"
measured_attribute = "growth"
measured_result = 43.3

[[record]]
compound = "Cc1nc(Nc2ccc(S(=O)(=O)Nc3cc(C)on3)cc2)c2ccccc2n1"
measured_attribute = "growth"
measured_result = 110


Quick one: give me growth for each item below, same order please.
1. CCCCOC(=O)c1ccc(NC(=O)C(C)N2CCOCC2)cc1 (stereo not given)
2. CC(=O)Nc1ccc2c(c1)Cc1c(F)cccc1-2
3. Cc1cc(=O)c2cc3nc(-c4cccnc4)oc3c(Br)c2o1

1: 99.5; 2: 107; 3: 131

Quick one: give me growth for each item below, same order please.
1. O=c1[nH]c(=O)n(C2CC(O)C(CO)O2)cc1CO (stereo not given)
2. CN1C(=O)CCC(N2C(=O)c3cccc(NCCOCCOCCNC(=O)c4cc5c(o4)C(=O)c4ccccc4C5=O)c3C2=O)C1=O (stereo not given)

[30.2, 1.34]

---

Tested on: MALME-3M melanoma
PROCEDURE_SUMMARY: NCI-60 one-dose screen, 48 h
STATED_CONDITIONS: 10 µM unless noted
Compounds without any hit were thinned out: in the full panel of roughly 83,000, 20% have a hit. Activity calls are given as the source filed them. The calls were made as follows: active = growth percent below 10; inactive = the rest.
Assign a class; possible classes are True (active), False (inactive)

Example results:
[[record]]
molecule = "COc1ccc(NC(=O)c2cccc(-c3cc(=O)c4c(O)c(OC)c(OC)cc4o3)c2)cc1"
target_desc = "MALME-3M melanoma"
group_label = "False"

[[record]]
molecule = "Cc1cc(C(c2ccccc2)c2ccccc2)ccc1NS(=O)(=O)c1ccccc1"
target_desc = "MALME-3M melanoma"
group_label = "False"

[[record]]
molecule = "COc1cc(C2CC(=O)Nc3n[nH]c(-c4ccccc4)c32)cc(OC)c1OC (centres undefined)"
target_desc = "MALME-3M melanoma"
group_label = "False"

[[record]]
molecule = "c1ccc(-c2oc3ccccc3c2-c2ccccc2)cc1"
target_desc = "MALME-3M melanoma"
group_label = "False"

[[record]]
molecule = "CCN(CC)CCOC(=O)N1c2ccccc2Sc2ccccc21"
target_desc = "MALME-3M melanoma"
group_label = "False"

[[record]]
molecule = "O=C(NC1CCOCC1)c1ccc2c(c1)CN(c1ncc(Cc3cccc(-n4cccn4)c3)s1)CC2"
target_desc = "MALME-3M melanoma"
group_label = "False"

[[record]]
molecule = "C=CCOc1cccc(/C=C2\\SC(=Nc3ccc(O)cc3)NC2=O)c1"
target_desc = "MALME-3M melanoma"
group_label = "False"

[[record]]
molecule = "O=C1CC(c2ccc3c(c2)OCO3)Nc2cc3c(cc21)OCO3 (centres undefined)"
target_desc = "MALME-3M melanoma"
group_label = "False"


Recorded call for NC(=O)c1c(NC(=O)c2ccccn2)sc2c1CCC(=O)C2 ? False

Recorded call for CCNCCNc1cc(-c2ccc(F)cc2)c(C#N)c2nc3ccccc3n12 ? True

Recorded call for Cc1cc(NS(=O)(=O)c2ccccc2)c(OS(=O)(=O)c2ccccc2)cc1C ? False

Recorded call for O=C1NCC(=O)N(Cc2ccco2)[C@H]1Cc1ccccc1 ? False

Recorded call for COc1cc(/C=C2\C=C(c3ccccc3)N(CCc3ccccc3)C2=O)cc(OC)c1OC ? False

Recorded call for COc1ccc(/C(C)=C(\c2ccc(Cl)cc2)c2ccc(OCCCN(C)C)cc2)cc1F ? False

Recorded call for COC1=CC(c2ccc[nH]2)=N/C1=C\c1[nH]c(C)c(C(=O)OCCn2cc(CCC[C@@H]3Cc4cc(O)ccc4C4CC[C@]5(C)[C@@H](O)CC[C@H]5C43)nn2)c1C (some centres undefined) ? False

Recorded call for N=c1ccn2c(n1)OC1C(O)C(CO)OC12 (centres undefined) ? False

Recorded call for Cc1cnc(Nc2ccc(OCCN3CCCC3)cc2)nc1NCc1ccco1 ? False

Recorded call for C=C1C(=O)O[C@H]2[C@H]1CC/C(COC(=O)/C=C\C(=O)NCc1ccc(Cn3c(=O)sn(-c4ccc(Cl)cc4)c3=O)cc1)=C\CC[C@@]1(C)O[C@@H]21 ? True

Recorded call for COc1cc(C2C=C(c3cccc(NC(C)=O)c3)Nc3ncnn32)cc(OC)c1OC (centres undefined) ? False

Recorded call for O=[N+]([O-])c1ccc(-c2cc3c(Nc4ccc(Cl)c(C(F)(F)F)c4)ncnc3s2)cc1 ? True

Recorded call for CC[C@@H](C[C@H](CCO)c1ccccc1)c1cc2ccccc2o1 ? False

Recorded call for CCO/C=N/C1=C(C#N)C(c2ccc(OC)cc2)c2c(c3ccccc3n(C)c2=O)O1 (centres undefined) ? False

Recorded call for C=C1C(=O)O[C@H]2[C@H]1CC/C(Cn1cc(CNCCc3c[nH]c4ccccc34)nn1)=C\CC[C@@]1(C)O[C@@H]21 ? False
